// read-out pIC50, gathered for Tyrosine-protein kinase JAK2 (Homo sapiens, UniProt O60674) from published studies
pIC50: −log10 of the molar value.

[[record]]
molecule = "COc1cccc(-c2cc(C(N)=O)c3[nH]c4cc(NC(=O)OCCN)ccc4c3c2)c1"
propertymeasured = "pIC50"
reportedvalue = 8.15

[[record]]
molecule = "CN(C)C1CCN(c2ccc(Nc3ncc4c(n3)N(S(=O)(=O)c3cccc5cccnc35)CC4(C)C)cc2)CC1"
propertymeasured = "pIC50"
reportedvalue = "< 6.00"

[[record]]
molecule = "CCC(=O)c1cnc(Nc2ccnc(OCCO)n2)cc1Nc1cccc(-c2ncn(C)n2)c1OC"
propertymeasured = "pIC50"
reportedvalue = "≤ 6.30"

[[record]]
molecule = "CN(c1ccccc1CNc1nc(-c2cc(F)c(O)cc2C2CC2)cc2[nH]nc(C(N)=O)c12)S(C)(=O)=O"
propertymeasured = "pIC50"
reportedvalue = 7.55

[[record]]
molecule = "CN(c1ncnc2[nH]ccc12)C1CC2(C1)CN(C(=O)CCS(C)(=O)=O)C2"
propertymeasured = "pIC50"
reportedvalue = "5.00 to 6.00"


INPUT: Item O=C1NCCCCOCc2cc(ccc2OCC2CCc3ccccc32)Nc2nccc(n2)-c2ccc1cc2[N+](=O)[O-] (stereo not shown) has what recorded pIC50?
OUTPUT: < 5.00

INPUT: Please do the same for CC[C@H](C1CC1)n1cc(-c2nc(-c3cnn(C[C@H](C)O)c3)cn3nccc23)cn1 as well.
OUTPUT: 7.00 to 8.00

###

// read-out IC50, gathered for Tyrosine-protein kinase JAK2 (Homo sapiens) from published studies

INPUT: Item Cn1cc(-c2cc3nccn3c(-c3ccn(C4(CC#N)CN(CC(F)(F)F)C4)n3)n2)cn1 has what recorded IC50?
OUTPUT: 100 to 1000 nM

INPUT: Please do the same for CN(C)CCOc1cccc(Nc2ncc3ccn(Cc4cccnc4N(C)S(C)(=O)=O)c3n2)c1 as well.
OUTPUT: < 20 nM

INPUT: Please do the same for O=C(NCCS(=O)(=O)N1CCCCC1)c1noc2c1CN(c1ncnc3[nH]ccc13)CC2 as well.
OUTPUT: > 2000 nM

INPUT: Please do the same for Cn1nc(C(=O)N[C@H]2C[C@H](C(=O)NS(C)(=O)=O)C2)c2c1CCN(c1ncnc3[nH]ccc13)C2 as well.
OUTPUT: 500 to 2000 nM

###

// read-out pIC50, gathered for Tyrosine-protein kinase JAK2 (Homo sapiens, UniProt O60674) from published studies
pIC50: −log10 of the molar value.

// worked examples, pIC50 included
[[record]]
chemicalstructure = "COCCNC(=O)N1CC[C@H](Oc2ccc(-c3ncnc(Nc4ccc(N5CCN(C6COC6)CC5)cc4)n3)cc2C#N)[C@H](F)C1"
propertymeasured = "pIC50"
reportedvalue = "≤ 6.00"

[[record]]
chemicalstructure = "N#Cc1cc(-c2ncnc(Nc3ccc(N4CCN(C5COC5)CC4)cc3)n2)ccc1O[C@H]1CCN(C(=O)c2cn[nH]c2)C[C@H]1F"
propertymeasured = "pIC50"
reportedvalue = 6.26

[[record]]
chemicalstructure = "N#Cc1cc(-c2ncnc(Nc3ccc(N4CCN(C5COC5)CC4)cc3)n2)ccc1N1CCC2(CCOCC2)C1"
propertymeasured = "pIC50"
reportedvalue = 6.86


INPUT: Item N#Cc1cc(-c2ncnc(Nc3ccc(N4CCN(C5CCOCC5)CC4)c(F)c3)n2)ccc1O[C@H]1CCN(C(=O)CO)C[C@H]1F has what recorded pIC50?
OUTPUT: 6.57

INPUT: Please do the same for N#CCC1(n2cc(-c3ccnc(Nc4ccc(N5CCOCC5)cc4)n3)cn2)CCN(S(=O)(=O)C2CC2)CC1 as well.
OUTPUT: > 7.00

INPUT: Please do the same for Cc1cnc2nc1NCCCCCNC(=O)c1ccc(cc1S(C)(=O)=O)-c1cnc(F)c(c1)N2 as well.
OUTPUT: 5.00 to 6.00

INPUT: Please do the same for N#CCC1(n2cc(-c3ncnc4[nH]ccc34)cn2)CN(C2CCN(C(=O)c3ccc(-c4ccc5nccn5c4)c(F)c3)CC2)C1 as well.
OUTPUT: 7.30 to 8.00

INPUT: Please do the same for CCOC(=O)Cn1cc(Nc2ncc3ccn(CC45CC6CC(CC(C6)C4)C5)c3n2)cn1 as well.
OUTPUT: > 7.00

INPUT: Please do the same for CC(C)C[C@@H](C)n1cc(-c2nc(-c3cnn(C[C@H](O)CO)c3)cn3nccc23)cn1 as well.
OUTPUT: 6.00 to 7.00

INPUT: Please do the same for O=C1NCCCCCNc2nc(ncc2F)Nc2cc(cnc2F)-c2ccc1cc2 as well.
OUTPUT: 6.00 to 7.00

INPUT: Please do the same for N#Cc1cc(-c2ncnc(Nc3ccc(N4CCN(C5COC5)CC4)cc3)n2)ccc1O[C@H]1CCN(C(=O)CCO)CC1(F)F as well.
OUTPUT: 6.76

INPUT: Please do the same for Cc1ccc(C(=O)Nc2ccc(F)cc2F)cc1-c1ccc2nc(NC(=O)C3CC3)sc2n1 as well.
OUTPUT: < 5.00

INPUT: Please do the same for C#CCN1CC(CC#N)(n2cc(-c3nc(-c4cnn(C)c4)cc4nccn34)cn2)C1 as well.
OUTPUT: 6.00 to 7.00

INPUT: Please do the same for C[C@H](O)C(=O)N1CC[C@H](Oc2ccc(-c3ncnc(Nc4ccc(N5CC(C)(O)C5)cc4)n3)cc2C#N)[C@H](F)C1 as well.
OUTPUT: 6.30

INPUT: Please do the same for N#CCC1(n2cc(-c3ccnc4[nH]ccc34)cn2)CN(C2CCN(C(=O)Nc3ccncc3C(F)(F)F)CC2)C1 as well.
OUTPUT: 7.00 to 7.30

###

// read-out pIC50, gathered for Tyrosine-protein kinase JAK2 (Homo sapiens, UniProt O60674) from published studies
pIC50: −log10 of the molar value.

// worked examples, pIC50 included
[[record]]
compound = "N#CCC1(n2cc(-c3ncnc4[nH]ccc34)cn2)CN(C2CCN(C(=O)OCc3ccccc3)CC2)C1"
reportedvalue = "7.30 to 8.00"

[[record]]
compound = "COc1ccc(F)cc1C(=O)N1CCC(N2CC(CC#N)(n3cc(-c4ncnc5[nH]ccc45)cn3)C2)CC1"
reportedvalue = "≥ 8.00"

[[record]]
compound = "C[C@H]1CN(C2COC2)CCN1c1ccc(Nc2ncnc(-c3ccc(O[C@H]4CCN(C(=O)c5cnn[nH]5)C[C@H]4F)c(C#N)c3)n2)cc1"
reportedvalue = 6.64

[[record]]
compound = "Cc1cnc2nc1-c1ccc(cc1)C(=O)NCCCCOCc1cc(ccc1N1CCOCC1)N2"
reportedvalue = "7.00 to 7.96"

[[record]]
compound = "C=CCCNc1nc(Nc2ccc3c(c2)NC[C@H](O)CO3)ncc1C(N)=O"
reportedvalue = "> 8.00"

[[record]]
compound = "CNCc1ccc(-n2cc(-c3nc(NC4CCN(S(C)(=O)=O)CC4)ncc3C(F)(F)F)cn2)c(C)c1"
reportedvalue = "≤ 5.00"

[[record]]
compound = "C[C@H](O)C(=O)N1CC[C@H](Oc2ccc(-c3ncnc(Nc4ccc(N5CCN(C6COC6)CC5)c(Cl)c4)n3)cc2C#N)[C@H](F)C1"
reportedvalue = 6.76

[[record]]
compound = "CC(C)N1CCC(N2Cc3nn(C(C)C)cc3-c3n[nH]c4ccnc2c34)CC1"
reportedvalue = 5.27

[[record]]
compound = "CCCS(=O)(=O)N[C@H]1C[C@@H](Nc2c(-c3nnco3)cnc3[nH]ccc23)C1"
reportedvalue = "7.00 to 8.00"

[[record]]
compound = "CS(=O)(=O)c1cccc(-c2cnc3[nH]ccc3c2N[C@@H]2CCCN(C(=O)CC#N)C2)c1"
reportedvalue = "6.00 to 7.00"


INPUT: Item C[C@H](O)C(=O)N1CC[C@H](Oc2ccc(-c3ncnc(Nc4ccc([C@H]5CCCN5)cc4)n3)cc2C#N)[C@H](F)C1 has what recorded pIC50?
OUTPUT: ≤ 6.00

INPUT: Please do the same for CN1CCN(C(=O)c2ccc3c(c2)[nH]c2c(C(N)=O)cc(-c4ccccc4)cc23)CC1 as well.
OUTPUT: 8.22

INPUT: Please do the same for N#CCC1(n2cc(-c3ncnc4[nH]ccc34)cn2)CN(C2CCN(C(=O)C3CCC(F)(F)CC3)CC2)C1 as well.
OUTPUT: 7.00 to 7.30

###

// read-out pIC50, gathered for Tyrosine-protein kinase JAK2 (Homo sapiens, UniProt O60674) from published studies
pIC50: −log10 of the molar value.

// worked examples, pIC50 included
[[record]]
compound = "Cc1ccc(NC(=O)c2cccc(F)c2)cc1-c1ccc2c(c1)[nH]c1ncncc12"
reportedvalue = "≥ 6.30"

[[record]]
compound = "CC1CCNC(=O)c2ccc(c([N+](=O)[O-])c2)-c2ccnc(n2)Nc2ccc(OCC3CCCC3)c(c2)COC1 (stereo not shown)"
reportedvalue = "< 5.00"

[[record]]
compound = "CNS(=O)(=O)CCNC(=O)c1noc2c1CN(c1ncnc3[nH]ccc13)CC2"
reportedvalue = "6.30 to 7.00"

[[record]]
compound = "CC(C)OC(=O)N1CCC2(CCC(N(C)c3ncnc4c3CCN4)CC2)CC1"
reportedvalue = "6.00 to 7.00"

[[record]]
compound = "CN1CCC(N2C(=O)c3cc4nc(-c5c(NC[C@@H](O)COc6cccc(-c7ccccc7)c6)cc[nH]c5=O)[nH]c4cc3C2=O)CC1"
reportedvalue = "5.30 to 6.30"


INPUT: Item Cc1nc2cnc3ccsc3c2n1[C@H]1CC[C@H](CC#N)[C@H](O)C1 (racemic) has what recorded pIC50?
OUTPUT: > 5.70

INPUT: Please do the same for N#CCC(C1CCCC1)n1cc(-c2ncnc3[nH]ccc23)c(N2C(=O)CCC2=O)n1 (stereo not shown) as well.
OUTPUT: > 7.00

INPUT: Please do the same for CN1CCC(N2C(=O)c3cc4nc(-c5c(NC[C@@H](O)COc6c(F)ccc(Cl)c6F)cc[nH]c5=O)[nH]c4cc3C2=O)CC1 as well.
OUTPUT: 5.30 to 6.30

INPUT: Please do the same for CN(C)c1ccc(CN2CCC(N3CC(CC#N)(n4cc(-c5ncnc6[nH]ccc56)cn4)C3)CC2)c(F)c1C#N as well.
OUTPUT: 7.30 to 8.00

INPUT: Please do the same for CCc1cc(O)c(F)cc1-c1cc2[nH]nc(C(=O)NC)c2c(N[C@H](C)c2ccccc2N(C)S(C)(=O)=O)n1 as well.
OUTPUT: 7.60

INPUT: Please do the same for Cn1cc(-c2cc3nccn3c(-c3cnn(C(CCO)C4CC4)c3)n2)cn1 (stereo not shown) as well.
OUTPUT: 6.00 to 7.00
